biological target: human CTLA-4 (Y166G and Y183G) expressed on CHO-K1.hCTLA-4 cells (human, UniProt P16410 36-223); experiment: CELISA, blockade of biotinylated hCD80/Fc binding to CHO-K1.hCTLA-4 cells
Sequence (P16410 36-223 Y201G/Y218G limits assumed): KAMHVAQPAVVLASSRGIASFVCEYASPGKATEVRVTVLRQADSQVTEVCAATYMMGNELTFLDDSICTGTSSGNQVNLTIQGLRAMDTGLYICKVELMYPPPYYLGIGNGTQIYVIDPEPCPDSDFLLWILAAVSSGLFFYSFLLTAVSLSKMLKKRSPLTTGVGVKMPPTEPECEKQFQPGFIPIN
Recorded IC50 for the following binders
Answer with a number only, understood to be in nM.

binder: hCTLA4.27H3L2 (antibody, human IgG4 S228P, kappa, V domains shown, Humanized, human IgG4 (S228P) kappa; H3 read as hCTLA4.27VH3, L2 as hCTLA4.27VL2) VH: EVQLVQSGAVVAKPGSSVKVSCKASGYSFTTYWMNWVRQAPGQGLEWMGMIHPSDSETSLNQAFKDRVTITADKSTSTAYMELSSLTSEDTAVYYCARMGRRNPYYFDYWGQGTTVTVSS VL: DIQMTQSPSSLSASVGDRVTITCRPSENLYTNLAWYQQKPGKAPKLLIYGATNLADGVPSRFSGSGSGTEFSLSISSLQPEDFATYYCQHLWGTPFTFGGGTKVEIKR
IC50 (nM): 2.06

The binder listed as hCTLA4.27A (antibody, V domains shown, also called mouse hCTLA4.27A; parental antibody) VH: QVQLQQPGAVLVRPGVSVKLSCKASGYSFTTYWMNWVKQRPGQGLEWIGMIHPSDSETSLNQAFKDKATLTIDKSSSTAYMQLSSPTSEDSAVYFCARMGRRNPYYFDYWGQGTTLTVSS VL: DIQMTQSPVSLSVSVGETVTITCRPSENLYTNLAWYQQKQGKSPQLLVYGATNLADGVPSRFSGSGSGTQYSLRINSLQSEDFGTYYCQHLWGTPFTFGSGTKLELK has a reported IC50 of 2.17

The binder listed as hCTLA4.27H5L2 (antibody, human IgG4 S228P, kappa, V domains shown, Humanized, human IgG4 (S228P) kappa; H5 read as hCTLA4.27VH5, L2 as hCTLA4.27VL2) VH: EVQLLQAGAVLARPGTSVKISCKASGYSFTTYWMNWVKQRPGKGLEWIGMIHPSDSETSLNQAFKDKAKLTAATSASIAYLEFSSLTNEDSAVYYCARIGRRNPYYFDYWGQGTLVTVSS VL: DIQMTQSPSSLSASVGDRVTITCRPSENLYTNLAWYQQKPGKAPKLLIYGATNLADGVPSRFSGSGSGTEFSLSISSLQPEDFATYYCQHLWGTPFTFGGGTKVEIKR has a reported IC50 of 10.3
